# target.system: mCerulean3-BCL-2 (^CBCL-2) (human), P10415
# Sequence (P10415 whole entry): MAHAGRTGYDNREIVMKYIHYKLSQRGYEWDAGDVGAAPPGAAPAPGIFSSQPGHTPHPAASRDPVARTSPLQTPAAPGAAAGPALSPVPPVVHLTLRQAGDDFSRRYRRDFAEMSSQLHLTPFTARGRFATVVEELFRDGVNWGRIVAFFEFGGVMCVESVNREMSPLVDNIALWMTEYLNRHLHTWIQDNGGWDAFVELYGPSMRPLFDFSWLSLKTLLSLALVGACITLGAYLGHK
# measurement.notes: FRET or BRET
# experimental.conditions: remark: other sources report otherwise
measure: Kd (µM)

| binder | observed.result |
| --- | --- |
| Venus-NOXA (^VNOXA), Q13794 1-54 (natural protein) MPGKKARKNAQPSPARAPAELEVECATQLRRFGDKLNFRQKLLNLISKLFCSGT | 8 |
